Parameter IC50: see the listing below.
Biological target: recombinant human SYK (GST-hSYK fusion protein) (Homo sapiens, UniProt P43405)
Assay: biochemical
Conditions: rhSYK Activity (IC50), recombinant human GST-SYK 5 pM, ATP 25 μM, biotinylated substrate peptide 250 nM, HTRF, 10-dose titration

Please review the entries below; each comes with its answer.
compound	target	IC50
Cc1cc(Nc2nccc(C(F)(F)F)n2)cc(-c2cnc(C(C)(O)c3ccc(C(=O)O)nc3)s2)c1 (stereo not shown) [Example 149]	recombinant human SYK (GST-hSYK fusion protein) (Homo sapiens, UniProt P43405)	< 0.1 µM
Cc1cc(Nc2nccc(C(F)(F)F)n2)cc(-c2cnc(CNc3cncnc3)s2)c1 [Example 88A-1]	recombinant human SYK (GST-hSYK fusion protein) (Homo sapiens, UniProt P43405)	< 0.1 µM
Cc1cc(Nc2nccc(C(F)(F)F)n2)cc(-c2cnc(C(=O)NCc3cnn(C)c3)s2)c1 [Example 87A-13]	recombinant human SYK (GST-hSYK fusion protein) (Homo sapiens, UniProt P43405)	0.1 to 1 µM

We now examine a further compound.
For Cc1cc(Nc2nccc(C(F)(F)F)n2)cc(-c2cnc(CNCC(O)CO)s2)c1 (stereo not shown) [Example 88A-41] the compound record lists IC50 as < 0.1 µM

* * *

Biological target: recombinant human SYK (GST-hSYK fusion protein) (Homo sapiens)
Assay: biochemical
Settings: rhSYK Activity, Table 113B
readoutName: IC50

Please review the entries below; each comes with its answer.
molecule	result
CCOC(=O)C1CC(C)C(O)(c2ncc(-c3cc(C)cc(Nc4nccc(C(F)(F)F)n4)c3)s2)C(C)C1 (stereo not shown) [Example 113B-31]	< 100 nM
CCOC(=O)C1CC(C)C(O)(c2ncc(-c3cc(C)cc(Nc4nccc(C(F)(F)F)n4)c3)s2)CC1C (stereo not shown) [Example 113B-20]	100 to 1000 nM
CCOC(=O)C1CC(C)C(O)(c2ncc(-c3cc(C)cc(Nc4nccc(C(F)(F)F)n4)c3)s2)CC1C (stereo not shown) [Example 113B-18]	< 100 nM
Cc1cc(Nc2nccc(C)n2)cc(-c2cnc(C3(O)CC(C)C(C(=O)O)CC3C)s2)c1 (stereo not shown) [Example 113B-3]	< 100 nM
CCOC(=O)C1CC(C)C(O)(c2ncc(-c3cc(C)cc(Nc4nccc(C)n4)c3)s2)CC1C (stereo not shown) [Example 113B-10]	< 100 nM

Summary: Cc1cc(Nc2nccc(C(F)(F)F)n2)cc(-c2cnc(C3(O)CC(C)C(C(=O)OC(C)C)C(C)C3)s2)c1 (stereo not shown) [Example 113B-26] , recombinant human SYK (GST-hSYK fusion protein) (Homo sapiens), IC50 = 1000 to 10000 nM

Summary: Cc1cc(Nc2nccc(C(F)(F)F)n2)cc(-c2cnc(C3(O)CC(C)C(C(=O)O)CC3C)s2)c1 (stereo not shown) [Example 113B-12] , recombinant human SYK (GST-hSYK fusion protein) (Homo sapiens), IC50 = < 100 nM

* * *

Parameter pIC50: see the listing below.
Molecular target: recombinant human SYK (GST-hSYK fusion protein) (Homo sapiens)
Details: read-out: rhSYK Activity; Table 33B
pIC50: −log10 of the molar value.

Please review the entries below; each comes with its answer.
compound	pIC50
Cc1cc(Nc2nccc(C(F)(F)F)n2)cc(-c2cnc(C3(O)CCC(CC(=O)O)C3)s2)c1 (single isomer, unassigned) [Example 33B-27]	> 7.00
Cc1cc(Nc2nccc(C(F)(F)F)n2)cc(-c2cnc(C3(O)CCCC(C(=O)O)C(C)(C)C3)s2)c1 (stereo not drawn) [Example 33B-10]	> 7.00

Summary: Cc1cc(Nc2nccc(C(F)(F)F)n2)cc(-c2cnc(C3(O)CCC(CC(=O)O)C3)s2)c1 (single isomer, unassigned) [Example 33B-28] , recombinant human SYK (GST-hSYK fusion protein) (Homo sapiens), pIC50 = > 7.00

* * *

Target: rhSYK (Homo sapiens)
Conditions: read-out: rhSYK Activity; class symbol; where two forms are listed, one symbol per form
readoutName: IC50

Please review the entries below; each comes with its answer.
compound	target	IC50
COC(=O)c1ccc(C(O)c2ncc(-c3cc(C)cc(Nc4nccc(C(F)(F)F)n4)c3)s2)cc1 (stereo not shown) [Example 4A-52]	rhSYK (Homo sapiens)	100 to 1000 nM
Cc1cc(Nc2nccc(C(F)(F)F)n2)cc(-c2cnc(C(C)(O)c3cccc(C(=O)O)c3)s2)c1 (stereo not shown) [Example 4A-53]	rhSYK (Homo sapiens)	< 100 nM
CCOC(=O)C(O)(c1ncc(-c2cc(C)cc(Nc3nccc(C(F)(F)F)n3)c2)s1)C(F)(F)F (stereo not shown) [Example 6-6]	rhSYK (Homo sapiens)	< 100 nM
Cc1cc(Nc2nccc(C(F)(F)F)n2)cc(-c2cnc(C3(O)CCC(CC(C)(C)C(=O)O)CC3)s2)c1 (stereo not shown) [Example 4C-26]	rhSYK (Homo sapiens)	< 100 nM
Cc1cc(Nc2nccc(C(F)(F)F)n2)cc(-c2cnc(C(C)(O)Cc3ccc(C(=O)O)cc3)s2)c1 (stereo not shown) [Example 4A-61]	rhSYK (Homo sapiens)	< 100 nM

Summary: CC(O)(c1ncc(-c2cccc(Nc3nccc(C(F)(F)F)n3)c2)s1)C1CCC1 (stereo not shown) [Example 4A-23] , rhSYK (Homo sapiens), IC50 = < 100 nM

Summary: CC(C)n1cc(C(O)c2ncc(-c3cccc(Nc4nccc(C(F)(F)F)n4)c3)s2)cn1 (stereo not shown) [Example 4A-20] , rhSYK (Homo sapiens), IC50 = 100 to 1000 nM

* * *

Target: recombinant human SYK (GST-hSYK fusion protein) (Homo sapiens)
Experiment: biochemical
Conditions: rhSYK Activity, Table 116A
Parameter IC50: see the listing below.

Please review the entries below; each comes with its answer.
molecule	IC50
COC(=O)C1CCC(O)(c2ncc(-c3cc(C)cc(Nc4ncc(Cl)c(OC)n4)c3)s2)CC1(C)C (stereo not drawn) [116A-38]	100 to 1000 nM
Cc1cc(Nc2nccc([C@@H](C)F)n2)cc(-c2cnc([C@@]3(O)CC[C@H](C(=O)O)C(C)(C)C3)s2)c1 [116A-39]	< 100 nM
Cc1cc(Nc2ncc(Cl)c(C)n2)cc(-c2cnc([C@@]3(O)CC[C@H](C(=O)O)C(C)(C)C3)s2)c1 [116A-27]	< 100 nM

For COc1nc(Nc2cc(C)cc(-c3cnc(C4(O)CCC(C(=O)O)C(C)(C)C4)s3)c2)ncc1Cl (stereo not drawn) [116A-36] the molecule record lists IC50 as < 100 nM

For Cc1cc(Nc2nccc([C@H](C)F)n2)cc(-c2cnc([C@@]3(O)CC[C@H](C(=O)O)C(C)(C)C3)s2)c1 [116A-40] the molecule record lists IC50 as < 100 nM

* * *

Target: rhSYK (Homo sapiens, UniProt P43405)
Conditions: read-out: rhSYK Activity; class symbol; where two forms are listed, one symbol per form
pIC50: −log10 of the molar value.
readoutName: pIC50

compound	target	result
C=CCCC(O)c1ncc(-c2cc(C)cc(Nc3nccc(C(F)(F)F)n3)c2)s1 (stereo not drawn)	rhSYK (Homo sapiens, UniProt P43405)	> 7.00
CCOC(=O)C1CCCC(O)(c2ncc(-c3cc(C)cc(Nc4nccc(C(F)(F)F)n4)c3)s2)C1 (stereo not drawn)	rhSYK (Homo sapiens, UniProt P43405)	6.00 to 7.00
CCOC(=O)C1(C(C)(O)c2ncc(-c3cccc(Nc4nccc(C(F)(F)F)n4)c3)s2)CC1 (stereo not drawn)	rhSYK (Homo sapiens, UniProt P43405)	6.00 to 7.00
CC(O)(c1ncc(-c2cccc(Nc3nccc(C(F)(F)F)n3)c2)s1)C(F)F (stereo not drawn)	rhSYK (Homo sapiens, UniProt P43405)	> 7.00
OC(c1ncc(-c2cccc(Nc3nccc(C(F)(F)F)n3)c2)s1)C1CCCC1 (stereo not drawn)	rhSYK (Homo sapiens, UniProt P43405)	6.00 to 7.00
O=C(c1ccccc1)N1CCC(O)(c2ncc(-c3cccc(Nc4nccc(C(F)(F)F)n4)c3)s2)CC1	rhSYK (Homo sapiens, UniProt P43405)	> 7.00

For COC(=O)C(C)(C)C(C)(O)c1ncc(-c2cc(C)cc(Nc3nccc(C(F)(F)F)n3)c2)s1 (stereo not drawn) the compound record lists pIC50 as > 7.00

For `COc1ccc(Nc2nccc(C(F)(F)F)n2)cc1-c1cnc(C2(O)CCC2)s1` the compound record lists pIC50 as > 7.00

* * *

Biological target: recombinant human SYK (GST-hSYK fusion protein) (Homo sapiens, UniProt P43405)
Assay: biochemical
Conditions: rhSYK Activity, Table 61A
Parameter IC50: see the listing below.

Please review the entries below; each comes with its answer.
molecule	IC50
Cc1cc(Nc2nccc(C(F)(F)F)n2)cc(-c2cnc(C(C)(C)N)s2)c1 [61A-3]	< 100 nM
Cc1cc(Nc2nccc(C(F)(F)F)n2)cc(-c2cnc(C(NS(C)(=O)=O)(C3CC3)C3CC3)s2)c1 [61A-1]	< 100 nM
Cc1cc(Nc2nccc(C(F)(F)F)n2)cc(-c2cnc(C(N[S+]([O-])C(C)(C)C)(C3CC3)C3CC3)s2)c1 (stereo not shown) [61A-2]	100 to 1000 nM

For Cc1cc(Nc2nccc(C(F)(F)F)n2)cc(-c2cnc(C(C)(C)NS(C)(=O)=O)s2)c1 [61A-4] the molecule record lists IC50 as < 100 nM
